# PROTOCOL DESCRIPTION: Pharmacokinetic evaluation in C57BL/6 mice
# Format: in vivo
# TEST CONTEXT: male, mouse, plasma, intravenous 1 mpk / gavage 5 mpk study, read-out: Half-life T1/2 (converted)
RESULT TYPE: half-life (h)
The response must be a number in h with no trailing unit.

> print(dat)
                                   molecule  result.type  unit.string  numeric.readout
1  CC(C)S(=O)(=O)c1c(Cl)ccc(NC(=O)N[C@H]2CCCc3ccoc32)c1O [WX003A]    half-life            h             2.22

Query :: Identify half-life associated with the molecule Cc1c(F)cccc1NC(=O)Nc1ccc(Cl)c(S(=O)(=O)[C@H]2CCCNC2)c1O [Danirixin, danirixin, reference compound]
Result :: 7.43

Query :: Identify half-life associated with the molecule O=C(Nc1ccc(Cl)c(S(=O)(=O)C2CC2)c1O)NC1CCCc2ccoc21 (single isomer, unassigned) [WX006A]
Result :: 3.09

Query :: Identify half-life associated with the molecule O=C(Nc1ccc(Cl)c(S(=O)(=O)CC(F)(F)F)c1O)N[C@H]1CCCc2ccoc21 [WX012A]
Result :: 0.94

###

# ASSAY SYSTEM: CXCR2 (Homo sapiens (Human), UniProt P25025)
# Sequence (P25025 whole entry): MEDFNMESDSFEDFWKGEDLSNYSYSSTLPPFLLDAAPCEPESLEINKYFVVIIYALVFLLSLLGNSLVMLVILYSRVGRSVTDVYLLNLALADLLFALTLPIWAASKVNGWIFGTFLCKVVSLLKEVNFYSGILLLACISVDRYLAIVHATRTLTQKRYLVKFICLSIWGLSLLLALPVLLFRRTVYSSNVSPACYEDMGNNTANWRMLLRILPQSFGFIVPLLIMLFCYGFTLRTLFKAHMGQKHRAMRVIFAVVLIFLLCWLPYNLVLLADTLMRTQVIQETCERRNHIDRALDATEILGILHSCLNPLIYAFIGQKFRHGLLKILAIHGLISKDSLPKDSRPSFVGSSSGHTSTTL
# PROTOCOL DESCRIPTION: PathHunter CXCR2 β-arrestin cell assay, antagonism of CXCL8 (EC80)
# TEST CONTEXT: PathHunter CXCR2 β-arrestin cells, CXCL8 agonist at EC80
RESULT TYPE: IC50 (nM)
The response must be a number in nM with no trailing unit.

> print(dat)
                                   compound                              assay.system  unit.string  numeric.readout
1  CC(C)(Cc1ccccc1)S(=O)(=O)c1c(Cl)ccc(NC(=O)N[C@H]2CCCc3ccoc32)c1O (single isomer, unassigned) [WX020A]  CXCR2 (Homo sapiens (Human), UniProt P25025)           nM              177
2  Cc1cc2c(o1)C(NC(=O)Nc1ccc(Cl)c(S(=O)(=O)[C@H]3CCCNC3)c1O)CCC2 (single isomer, unassigned) [WX029A]  CXCR2 (Homo sapiens (Human), UniProt P25025)           nM                2
3  O=C(Nc1ccc(Cl)c(S(=O)(=O)C2CCC2)c1O)NC1CCCc2ccoc21 (stereo not drawn)  CXCR2 (Homo sapiens (Human), UniProt P25025)           nM              177
4  O=C(Nc1ccc(Cl)c(S(=O)(=O)C2CC2)c1O)N[C@H]1CCCc2ccsc21 (single isomer, unassigned) [WX027A]  CXCR2 (Homo sapiens (Human), UniProt P25025)           nM              269
5  O=C(Nc1ccc(Cl)c(S(=O)(=O)C2CC3(CCNCC3)C2)c1O)N[C@H]1CCCc2ccoc21 (single isomer, unassigned) [WX022A]  CXCR2 (Homo sapiens (Human), UniProt P25025)           nM              366
6  CCS(=O)(=O)c1c(Cl)ccc(NC(=O)NC2CCCc3ccoc32)c1O (single isomer, unassigned) [WX007A]  CXCR2 (Homo sapiens (Human), UniProt P25025)           nM               42
7  CC(C)(C)OC(=O)N1CCC[C@H](S(=O)(=O)c2c(Cl)ccc(NC(=O)NC3CCCc4ccoc43)c2O)C1 (single isomer, unassigned) [WX004A]  CXCR2 (Homo sapiens (Human), UniProt P25025)           nM               43
8  O=C(Nc1ccc(Cl)c(S(=O)(=O)C2CCCNC2)c1O)NC1CCCc2sccc21 (single isomer, unassigned) [WX024A]  CXCR2 (Homo sapiens (Human), UniProt P25025)           nM              525

Query :: Identify IC50 associated with the compound O=C(Nc1ccc(Cl)c(S(=O)(=O)[C@H]2CCCNC2)c1O)NC1CCCc2cc(C(F)(F)F)oc21 (single isomer, unassigned) [WX030B]
Result :: 22

Query :: Identify IC50 associated with the compound NCCS(=O)(=O)c1c(Cl)ccc(NC(=O)NC2CCCc3ccoc32)c1O (stereo not drawn)
Result :: 186

Query :: Identify IC50 associated with the compound CC(C)S(=O)(=O)c1c(Cl)ccc(NC(=O)N[C@H]2CCCc3ccoc32)c1O [WX003A]
Result :: 17

Query :: Identify IC50 associated with the compound O=C(Nc1ccc(Cl)c(S(=O)(=O)C2CC2)c1O)N[C@@H]1CCCc2sccc21 (single isomer, unassigned) [WX025B]
Result :: 139

Source: patent US11136315B2
